Reference for the values: ChEMBL document CHEMBL4385640

- Tested on: LLC-PK1
- method-summary: Ratio of efflux ratio of LLC-PK1 cells expressing human MDR1 at 1 uM to efflux ratio of wild type LLC-PK1 cells at 1 uM
- Format: ADME, cell-based, Sus scrofa
- recorded-conditions: pig, llc-pk1, 1 µM
Please respond with reported Ratio for every item in the list.
Reply with the value as a number alone.

Any idea what its Ratio is? The molecule is Cc1cc(C)n2nc(CC(=O)N3c4nc5ccccc5n4CC3(C)C)nc2n1
2.1

Any idea what its Ratio is? The molecule is Cc1ncc(C)n2nc(CC(=O)N3CCn4c3nc3ccccc34)nc12
1.3

Any idea what its Ratio is? The molecule is Cc1cc(C)n2cc(CC(=O)N3CCn4c3nc3ccccc34)nc2n1
1

Any idea what its Ratio is? The molecule is Cc1ncc(C)n2nc(CC(=O)N3c4nc5ccccc5n4C[C@@H]3C)nc12
1.2

Any idea what its Ratio is? The molecule is Cc1cc(C)n2nc(CCN3CCn4c3nc3ccccc34)nc2n1
3.6

Any idea what its Ratio is? The molecule is Cc1cc(C)n2nc(CC(=O)N3c4nc5ccccc5n4CC3C)nc2n1 (racemic)
2.4

Any idea what its Ratio is? The molecule is Cc1cc(C)n2nc(CC(=O)N3CCn4c3nc3ccccc34)nc2n1
2.3

Any idea what its Ratio is? The molecule is Cc1cc(C)n2nc(CC(=O)N3CCn4c3nc3ccccc34)nc2c1
1.2

Any idea what its Ratio is? The molecule is Cc1cc(C)n2nc(CCc3cc(O)n4nc5ccccc5c4n3)nc2n1
1.8

Any idea what its Ratio is? The molecule is Cc1cc(C)n2nc(CC(=O)N3c4nc5ccccc5n4C[C@@H]3C)nc2n1
2.4

Any idea what its Ratio is? The molecule is Cc1cc(C)n2nc(CC(=O)N3c4nc5ccccc5n4C[C@@H]3c3ccccc3)nc2n1
3.8

###

- tested-on: CYP2C19 (Homo sapiens, UniProt P33261)
- Sequence (P33261 whole entry): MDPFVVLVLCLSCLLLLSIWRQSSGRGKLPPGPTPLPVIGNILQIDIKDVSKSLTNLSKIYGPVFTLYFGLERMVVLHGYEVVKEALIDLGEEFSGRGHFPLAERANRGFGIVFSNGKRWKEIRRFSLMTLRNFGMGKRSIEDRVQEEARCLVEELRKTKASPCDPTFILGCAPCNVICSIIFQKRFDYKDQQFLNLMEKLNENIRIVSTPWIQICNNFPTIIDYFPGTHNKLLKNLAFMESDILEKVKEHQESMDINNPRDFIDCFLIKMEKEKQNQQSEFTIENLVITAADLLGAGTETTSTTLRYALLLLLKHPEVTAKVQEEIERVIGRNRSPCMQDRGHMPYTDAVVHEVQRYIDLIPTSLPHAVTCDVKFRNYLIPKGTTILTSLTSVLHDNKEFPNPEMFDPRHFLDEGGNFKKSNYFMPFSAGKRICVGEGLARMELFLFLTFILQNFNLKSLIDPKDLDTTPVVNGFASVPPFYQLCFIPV
- method-summary: Inhibition of CYP2C19 in human liver microsomes assessed as enzyme residual activity incubated for 30 mins by LC-MS/MS analysis relative to control
- Format: ADME
- recorded-conditions: read-out: Activity
measured-parameter: activity at 0.5 h (%)
Answer in %, number only, no unit symbol.

Any idea what its activity at 0.5 h is? The molecule is Cc1ncc(C)n2nc(CC(=O)N3c4nc5ccccc5n4C[C@@H]3C)nc12
90

###

- tested-on: CYP2C9 (Homo sapiens)
- Sequence (P11712 whole entry): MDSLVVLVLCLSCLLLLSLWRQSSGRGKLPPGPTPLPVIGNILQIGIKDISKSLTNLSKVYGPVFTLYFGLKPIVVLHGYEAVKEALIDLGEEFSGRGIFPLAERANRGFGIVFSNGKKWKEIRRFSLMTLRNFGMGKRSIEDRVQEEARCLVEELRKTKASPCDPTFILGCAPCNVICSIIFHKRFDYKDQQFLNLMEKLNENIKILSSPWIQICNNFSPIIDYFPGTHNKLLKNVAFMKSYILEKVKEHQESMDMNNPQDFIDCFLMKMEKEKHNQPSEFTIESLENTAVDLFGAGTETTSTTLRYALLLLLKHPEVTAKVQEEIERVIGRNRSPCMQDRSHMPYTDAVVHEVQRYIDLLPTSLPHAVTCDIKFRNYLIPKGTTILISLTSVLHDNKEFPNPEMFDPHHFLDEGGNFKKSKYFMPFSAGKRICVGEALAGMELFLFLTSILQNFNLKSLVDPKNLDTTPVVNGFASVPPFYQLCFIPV
- method-summary: Inhibition of CYP2C9 in human liver microsomes assessed as enzyme residual activity incubated for 30 mins by LC-MS/MS analysis relative to control
- Format: ADME
- recorded-conditions: read-out: Activity
measured-parameter: activity at 0.5 h (%)
Answer in %, number only, no unit symbol.

Any idea what its activity at 0.5 h is? The compound is Cc1ncc(C)n2nc(CC(=O)N3c4nc5ccccc5n4C[C@@H]3C)nc12
96

###

- tested-on: UniProt P08684
- Sequence (P08684 whole entry): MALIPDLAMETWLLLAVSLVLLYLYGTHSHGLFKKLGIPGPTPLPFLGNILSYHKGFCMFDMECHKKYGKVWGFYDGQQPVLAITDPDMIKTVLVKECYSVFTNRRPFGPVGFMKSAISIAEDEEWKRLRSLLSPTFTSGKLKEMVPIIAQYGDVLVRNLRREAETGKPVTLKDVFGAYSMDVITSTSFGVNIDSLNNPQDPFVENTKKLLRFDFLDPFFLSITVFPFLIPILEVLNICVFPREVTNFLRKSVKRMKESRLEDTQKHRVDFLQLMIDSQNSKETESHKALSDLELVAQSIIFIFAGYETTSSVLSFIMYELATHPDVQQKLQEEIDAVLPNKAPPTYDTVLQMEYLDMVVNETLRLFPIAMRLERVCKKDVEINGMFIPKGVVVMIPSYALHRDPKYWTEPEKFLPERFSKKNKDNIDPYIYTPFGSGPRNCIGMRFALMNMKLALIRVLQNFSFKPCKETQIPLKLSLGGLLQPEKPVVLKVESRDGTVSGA
- method-summary: Inhibition of CYP3A4 in human liver microsomes assessed as enzyme residual activity incubated for 30 mins by LC-MS/MS analysis relative to control
- Assay type: ADME
- recorded-conditions: read-out: Activity
measured-parameter: activity at 0.5 h (%)
Answer in %, number only, no unit symbol.

Any idea what its activity at 0.5 h is? The compound is Cc1ncc(C)n2nc(CC(=O)N3c4nc5ccccc5n4C[C@@H]3C)nc12
90
